# protocol_description: MTT relative viability, PCMV-SEAP (hTERT-BJ1) cells
# Type: cell-based
# applied_conditions: human, stable PCMV-SEAP reporter clone, 28 μM
quantity: viability at 48 h, 28 µM (%)
// units = %; emit number, no label

INPUT: What does the record list as viability at 48 h, 28 µM for CCC(=O)Oc1cccc2c1C(=O)c1cccc(OC(=O)CC)c1C2=O [IIIa, 1,5-Bis(propionyloxy)-anthraquinone] ?
OUTPUT: 110

###

# protocol_description: MTT relative viability, PhTERT-SEAP (H1299) cells
# applied_conditions: human
viability at 48 h, 210 µM under 30% gets Satisfied, anything at or over 30% gets Not satisfied.

Study these solved cases before continuing.
• O=C1c2cccc(SCCCCCCO)c2C(=O)c2cccc(SCCCCCCO)c21 [IIe, 1,5-Bis(hydroxyhexylthio)-anthraquinone] = Not satisfied
• Cc1cccc(C(=O)Oc2cccc3c2C(=O)c2cccc(OC(=O)c4cccc(C)c4)c2C3=O)c1 = Satisfied
• Cc1ccc(C(=O)Oc2cccc3c2C(=O)c2cccc(OC(=O)c4ccc(C)cc4)c2C3=O)cc1 = Not satisfied

Here is the next item to consider.
INPUT: Answer whether the compound Cc1ccccc1C(=O)Oc1cccc2c1C(=O)c1cccc(OC(=O)c3ccccc3C)c1C2=O has viability at 48 h, 210 µM strictly less than 30%
OUTPUT: Not satisfied

###

# protocol_description: MTT relative viability, PhTERT-SEAP (hTERT-BJ1) cells
# applied_conditions: human, hTERT-BJ1 cells, stable PhTERT-SEAP reporter clone
Quick list: viability at 48 h, 2.1 µM per entry.
Write the number in % without appending the unit.

Illustrative cases are given below, each with its answer.
- O=C(Nc1ccc(NC(=O)c2cccs2)c2c1C(=O)c1ccccc1C2=O)c1cccs1: 118
- O=C1c2ccccc2C(=O)c2c(NC(=O)C3CCCCC3)ccc(NC(=O)C3CCCCC3)c21: 102

Consider the record given below.
INPUT: Param item = CCN(CC)CC(=O)Nc1ccc(NC(=O)CN(CC)CC)c2c1C(=O)c1ccccc1C2=O ; retrieve measured viability at 48 h, 2.1 µM.
OUTPUT: 105

###

# protocol_description: MTT relative viability, PhTERT-SEAP (H1299) cells
# applied_conditions: human
quantity: viability at 48 h, 310 µM (%)
Answer with a number only, understood to be in %.

* CCCNc1cccc2c1C(=O)c1cccc(NCCC)c1C2=O [IVf, 1,5-Bis(propylamino)anthraquinone] | 46
* CC(C)Nc1cccc2c1C(=O)c1cccc(NC(C)C)c1C2=O [IVc, 1,5-Bis(isopropylamino)anthraquinone] | 50

// below: viability at 48 h, 310 µM requested for another molecule
INPUT: What viability at 48 h, 310 µM value was documented for this molecule, CC(=O)Nc1ccc(NC(C)=O)c2c1C(=O)c1ccccc1C2=O [VI3, 1,4-Bisacetamido-9,10-anthracenedione] ?
OUTPUT: 37

###

# protocol_description: MTT relative viability, PhTERT-SEAP (H1299) cells
# applied_conditions: human
quantity: viability at 48 h, 24 µM (%)
Numeric answer only, unit % assumed.

• CC(C)(C)C(=O)Oc1cccc2c1C(=O)c1cccc(OC(=O)C(C)(C)C)c1C2=O = 97

INPUT: Quick one: viability at 48 h, 24 µM for O=C1c2cccc(SCC(O)CO)c2C(=O)c2cccc(SCC(O)CO)c21 (centres unmarked) ?
OUTPUT: 103

Data origin: patent US20050009924A1
